Cited source for all entries: patent US20240034743A9

Entries and their IC50 values follow.
Target: EGFR L858R/T790M/C797S (Homo sapiens (Human), UniProt P00533, C797S/L858R/T790M)
Sequence (P00533 25-1210 T790M/C797S/L858R): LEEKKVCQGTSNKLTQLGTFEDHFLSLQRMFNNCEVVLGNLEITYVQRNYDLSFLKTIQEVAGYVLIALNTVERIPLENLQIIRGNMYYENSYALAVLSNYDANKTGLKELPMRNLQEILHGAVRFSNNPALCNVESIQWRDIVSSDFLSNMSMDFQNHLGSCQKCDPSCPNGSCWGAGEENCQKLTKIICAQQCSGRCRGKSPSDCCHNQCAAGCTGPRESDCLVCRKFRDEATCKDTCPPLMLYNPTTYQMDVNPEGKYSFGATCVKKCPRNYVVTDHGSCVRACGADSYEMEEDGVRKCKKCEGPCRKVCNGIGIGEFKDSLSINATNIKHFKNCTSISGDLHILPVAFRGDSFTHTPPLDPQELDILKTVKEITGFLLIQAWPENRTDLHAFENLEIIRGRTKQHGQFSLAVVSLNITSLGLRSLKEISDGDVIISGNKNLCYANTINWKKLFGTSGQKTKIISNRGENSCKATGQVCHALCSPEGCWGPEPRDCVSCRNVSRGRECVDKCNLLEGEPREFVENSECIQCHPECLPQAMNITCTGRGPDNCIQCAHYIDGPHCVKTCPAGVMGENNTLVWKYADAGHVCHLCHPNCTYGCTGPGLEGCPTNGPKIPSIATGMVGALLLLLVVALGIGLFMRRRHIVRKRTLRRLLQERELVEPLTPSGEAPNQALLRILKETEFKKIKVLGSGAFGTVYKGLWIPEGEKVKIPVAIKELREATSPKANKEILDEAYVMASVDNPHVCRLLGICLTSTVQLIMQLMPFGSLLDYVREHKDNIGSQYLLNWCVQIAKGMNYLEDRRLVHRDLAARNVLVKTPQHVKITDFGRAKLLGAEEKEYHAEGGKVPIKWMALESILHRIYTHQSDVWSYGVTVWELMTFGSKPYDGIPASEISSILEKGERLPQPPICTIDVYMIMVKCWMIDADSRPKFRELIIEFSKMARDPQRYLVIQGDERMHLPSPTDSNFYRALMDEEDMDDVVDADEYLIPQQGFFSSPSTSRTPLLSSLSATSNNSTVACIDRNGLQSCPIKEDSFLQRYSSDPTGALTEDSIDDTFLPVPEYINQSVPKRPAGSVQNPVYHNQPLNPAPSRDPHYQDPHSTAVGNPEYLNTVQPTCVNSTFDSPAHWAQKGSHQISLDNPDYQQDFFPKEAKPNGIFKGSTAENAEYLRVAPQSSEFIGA
Test: In vitro enzymatic TR-FRET (HTRF KinEASE-TK) kinase assay, EGFR L858R/T790M/C797S
Conditions: kinase activity

The following compounds have reported results that may help.
Query: Return reported IC50; argument: COc1cc2c(cc1Nc1ncc(Br)c(Nc3ccc4nccnc4c3C(N)=O)n1)-c1cnn(C)c1CCN2C(C)C
Response: 1 to 10 nM

Query: Let us now turn to COc1cc2c(cc1Nc1ncc(Br)c(Nc3ccccc3P(C)(C)=O)n1)-c1cnn(C)c1CCN2C(C)C
Response: < 1 nM

Query: Let us now turn to COc1cc2c(cc1Nc1ncc(Br)c(Nc3ccc4nccnc4c3NS(C)(=O)=O)n1)-c1cnn(C)c1CCN2CC(F)(F)F
Response: 100 to 1000 nM

Please look at the following compound next.
Query: Return reported IC50; argument: COc1ccc(Cn2ncc3c2CCN(C)c2cc(OC)c(Nc4ncc(Br)c(Nc5ccccc5P(C)(C)=O)n4)cc2-3)cc1
Response: 1 to 10 nM

---

Target: UniProt P00533
Assay: In vitro enzymatic TR-FRET (HTRF KinEASE-TK) kinase assay, EGFR WT
Format: biochemical
Conditions: kinase activity, TR-FRET; read-out: EGFR (WT) IC50
pIC50: −log10 of the molar value.
Entries and their pIC50 values follow.

The following compounds have reported results that may help.
Query: Can you look up pIC50 on UniProt P00533 for COc1cc2c(cc1Nc1ncc(Br)c(Nc3ccc4nccnc4c3NS(C)(=O)=O)n1)-c1cnn(C)c1CCN2C ?
Response: > 9.00

Query: Let us now turn to COc1cc2c(cc1Nc1ncc(Br)c(Nc3ccc4nccnc4c3P(C)(C)=O)n1)-c1cnn(C)c1CN(C)C2
Response: 8.00 to 9.00

Query: Let us now turn to COc1cc2c(cc1Nc1ncc(Br)c(Nc3ccccc3P(C)(C)=O)n1)-c1cn(C3COC3)nc1CCN2C(C)C [Compound 77B]
Response: 6.00 to 7.00

Further cases:
Query: Can you look up pIC50 on UniProt P00533 for COc1cc2c(cc1Nc1ncc(Br)c(Nc3ccc4nccnc4c3P(C)(C)=O)n1)-c1cccnc1CCN2C ?
Response: 7.30 to 8.00

Query: Let us now turn to COc1cc2c(cc1Nc1ncc(C)c(Nc3ccc4nccnc4c3NS(C)(=O)=O)n1)-c1cnn(C)c1CCN2C(C)C
Response: 8.00 to 9.00

Query: Let us now turn to COc1cc2c(cc1Nc1ncc(Br)c(Nc3ccnc(C)c3NS(C)(=O)=O)n1)-c1cnn(C)c1CCN2C
Response: 8.00 to 9.00

Query: Let us now turn to COc1cc2c(cc1Nc1ncc(Br)c(Nc3ccc4nccnc4c3N(C)S(C)(=O)=O)n1)-c1cnn(C)c1CCN2C1CCOCC1
Response: 8.00 to 9.00

---

Tested on: A431 cells (EGFR WT)
Experiment: A431 cell proliferation inhibition assay (CellTiter-Glo)
Format: cell-based
Details: cell proliferation, 72 h, CellTiter-Glo; read-out: A431 EGFR WT IC50
readout-kind: IC50

The following compounds have reported results that may help.
Query: Can you look up IC50 on A431 cells (EGFR WT) for COc1cc2c(cc1Nc1ncc(Br)c(Nc3ccccc3P(C)(C)=O)n1)-c1cnn(C3COC3)c1CCN2C(C)C [Compound 77A] ?
Response: 100 to 1000 nM

Query: Let us now turn to COc1cc2c(cc1Nc1ncc(Br)c(Nc3ccccc3P(C)(C)=O)n1)-c1cnn(C)c1CCN2[C@@H]1CCN(C)C[C@H]1F (single isomer, unassigned) [Compound 66A]
Response: 100 to 1000 nM

Query: Let us now turn to COc1cc2c(cc1Nc1ncc(Br)c(Nc3ccccc3P(C)(C)=O)n1)-c1cn(C3COC3)nc1CCN2C(C)C [Compound 77B]
Response: 100 to 1000 nM

Query: Let us now turn to COc1cc2c(cc1Nc1ncc(Br)c(Nc3ccccc3P(C)(C)=O)n1)-c1cnn(C)c1CCN2[C@H]1CCN(C)C[C@@H]1F (single isomer, unassigned) [Compound 66B]
Response: 100 to 1000 nM

Further cases:
Query: Can you look up IC50 on A431 cells (EGFR WT) for COc1cc2c(cc1Nc1ncc(Br)c(Nc3ccc4nccnc4c3P(C)(C)=O)n1)-c1cnn(C)c1CCN2C1CCN(C)C[C@@H]1F (some centres unmarked) ?
Response: 50 to 100 nM

---

Target: EGFR L858R/T790M/C797S (Homo sapiens (Human), UniProt P00533, C797S/L858R/T790M)
Experiment: In vitro enzymatic TR-FRET (HTRF KinEASE-TK) kinase assay, EGFR L858R/T790M/C797S
Details: kinase activity
Method: (I) In Vitro Enzymatic Experiment for EGFR WT and EGFR L858R/T790M/C797S In the assay, the inhibition effect of the compound on the kinase activity of EGFR WT (wild type EGFR) and EGFR L858R/T790M/C797S was tested by adopting a time-resolved fluorescence resonance energy transfer (TR-FRET) method, and half maximal inhibitory concentration IC50 of the compound on the kinase activity of EGFR was obtained. […] 7) The ratio of fluorescence signal values at 665 nm and 615 nm was calculated for each well. […]
Entries and their IC50 values follow.

The following molecules have reported results that may help.
Query: Can you look up IC50 on EGFR L858R/T790M/C797S (Homo sapiens (Human), UniProt P00533, C797S/L858R/T790M) for COc1cc2c(cc1Nc1ncc(Br)c(Nc3cccnc3P(C)(C)=O)n1)-c1cnn(C)c1CCN2C(C)C ?
Response: < 1 nM

Query: Let us now turn to COc1cc2c(cc1Nc1ncc(Br)c(Nc3ccccc3P(C)(C)=O)n1)-c1cn(C3COC3)nc1CCN2C(C)C [Compound 77B]
Response: 1 to 10 nM

Query: Let us now turn to COc1cc2c(cc1Nc1ncc(Br)c(Nc3ccccc3N(C(C)C)S(C)(=O)=O)n1)-c1cnn(C)c1CCN2
Response: 1 to 10 nM

Query: Let us now turn to COc1cc2c(cc1Nc1ncc(Br)c(Nc3ccccc3P(C)(C)=O)n1)-c1cnn(C)c1CCN2[C@@H]1CCN(C)C[C@H]1F (single isomer, unassigned) [Compound 66A]
Response: < 1 nM

Query: Let us now turn to COc1cc2c(cc1Nc1ncc(C)c(Nc3ccc4nccnc4c3P(C)(C)=O)n1)-c1cnn(C)c1CCN2C
Response: < 1 nM

Further cases:
Query: Can you look up IC50 on EGFR L858R/T790M/C797S (Homo sapiens (Human), UniProt P00533, C797S/L858R/T790M) for COc1nc2c(cc1Nc1ncc(Br)c(Nc3ccc4nccnc4c3P(C)(C)=O)n1)-c1cnn(C)c1CCN2C ?
Response: < 1 nM

Query: Let us now turn to COc1cc2c(cc1Nc1ncc(C)c(Nc3ccccc3P(C)(C)=O)n1)-c1cnn(C)c1CCN2C#N
Response: 1 to 10 nM

---

Test system: Ba/F3_Del19/T790M/C797S cells
Assay: Ba/F3_Del19/T790M/C797S cell proliferation inhibition assay (CellTiter-Glo)
Format: cell-based
Conditions: Mus musculus, BaF3, 72 h, read-out: Ba/F3 (Del19/T790M/C797S) IC50(nM)
readout-kind: IC50

Query: Return reported IC50; argument: CCn1ncc2c1CCN(C)c1cc(OC)c(Nc3ncc(Br)c(Nc4ccccc4P(C)(C)=O)n3)cc1-2 [Compound 39]
Response: 10 to 50 nM

Query: Let us now turn to COc1cc2c(cc1Nc1ncc(Br)c(Nc3ccccc3P(C)(C)=O)n1)-c1cnn(C)c1CCC2N (stereo not shown) [Compound 50]
Response: 10 to 50 nM

Please look at the following compound next.
Query: Return reported IC50; argument: COc1nc2c(cc1Nc1ncc(Br)c(Nc3ccc4nccnc4c3P(C)(C)=O)n1)-c1cnn(C)c1CCN2C(C)C [Compound 82]
Response: 10 to 50 nM

---

Molecular target: EGFR WT (wild type EGFR) (Homo sapiens (Human), UniProt P00533)
Sequence (P00533 25-1210): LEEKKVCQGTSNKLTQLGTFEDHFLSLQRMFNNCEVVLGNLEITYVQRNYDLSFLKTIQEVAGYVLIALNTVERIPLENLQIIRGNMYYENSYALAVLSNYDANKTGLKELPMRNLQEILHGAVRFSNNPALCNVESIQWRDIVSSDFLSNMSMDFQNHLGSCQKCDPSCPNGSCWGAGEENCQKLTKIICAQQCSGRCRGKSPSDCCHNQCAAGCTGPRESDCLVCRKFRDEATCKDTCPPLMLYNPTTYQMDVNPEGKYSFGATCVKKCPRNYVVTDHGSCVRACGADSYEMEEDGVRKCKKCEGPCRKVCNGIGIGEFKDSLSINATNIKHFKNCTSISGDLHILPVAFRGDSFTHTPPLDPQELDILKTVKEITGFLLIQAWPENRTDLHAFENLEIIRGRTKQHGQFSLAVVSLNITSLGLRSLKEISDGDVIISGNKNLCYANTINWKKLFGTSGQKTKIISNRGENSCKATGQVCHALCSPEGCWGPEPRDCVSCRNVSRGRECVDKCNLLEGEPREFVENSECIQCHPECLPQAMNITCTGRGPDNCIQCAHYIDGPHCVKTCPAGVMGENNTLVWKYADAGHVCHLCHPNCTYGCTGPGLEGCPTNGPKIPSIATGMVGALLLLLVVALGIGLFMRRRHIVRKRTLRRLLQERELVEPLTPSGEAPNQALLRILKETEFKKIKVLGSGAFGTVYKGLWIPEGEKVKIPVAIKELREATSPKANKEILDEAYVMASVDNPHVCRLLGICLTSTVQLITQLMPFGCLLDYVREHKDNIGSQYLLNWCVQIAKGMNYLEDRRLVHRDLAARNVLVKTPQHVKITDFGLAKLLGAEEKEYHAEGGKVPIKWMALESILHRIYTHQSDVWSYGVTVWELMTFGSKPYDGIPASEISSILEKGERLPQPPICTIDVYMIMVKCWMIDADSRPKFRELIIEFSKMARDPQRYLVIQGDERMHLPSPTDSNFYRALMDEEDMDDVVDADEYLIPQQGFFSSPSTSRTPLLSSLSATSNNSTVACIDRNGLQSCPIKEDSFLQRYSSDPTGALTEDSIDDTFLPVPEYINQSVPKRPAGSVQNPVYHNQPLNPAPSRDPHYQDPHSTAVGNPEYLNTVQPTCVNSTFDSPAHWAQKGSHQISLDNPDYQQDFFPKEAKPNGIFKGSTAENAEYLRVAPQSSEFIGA
Test: In vitro enzymatic TR-FRET (HTRF KinEASE-TK) kinase assay, EGFR WT
Assay type: biochemical
pIC50: −log10 of the molar value.
Entries and their pIC50 values follow.

The following molecules have reported results that may help.
Query: Can you look up pIC50 on EGFR WT (wild type EGFR) (Homo sapiens (Human), UniProt P00533) for COc1cc2c(cc1Nc1ncc(Br)c(Nc3ccccc3P(C)(C)=S)n1)-c1cnn(C)c1CCN2C1CCN(C(C)C)CC1 [Compound 105] ?
Response: 8.00 to 9.00

Query: Let us now turn to COc1cc2c(cc1Nc1ncc(Br)c(Nc3ccc4nccnc4c3N(C(C)C)S(C)(=O)=O)n1)-c1cnn(C)c1CCN2 [Compound 123]
Response: 8.00 to 9.00

Please look at the following molecule next.
Query: Can you look up pIC50 on EGFR WT (wild type EGFR) (Homo sapiens (Human), UniProt P00533) for COc1cc2c(cc1Nc1ncc(Br)c(Nc3ccccc3P(C)(C)=S)n1)-c1cnn(C)c1CCN2C1CCN(C)CC1 [Compound 101] ?
Response: 8.00 to 9.00
